- system name: SARS-CoV-2 RdRP (Severe acute respiratory syndrome coronavirus 2)
- test name: SARS-CoV-2 RdRP RNA polymerization activity, in vitro fluorescent assay
- Format: biochemical

compound	IC50 / µM
COc1nc(N)nc2c1ncn2[C@@H]1O[C@H](COP(=O)(N[C@@H](C)C(=O)OCC(C)(C)C)Oc2cccc3ccccc23)[C@@H](O)[C@@]1(C)O (stereo partly shown)	18.4

Reference for the values: paper PMC9333455
